Measured values drawn from ChEMBL document CHEMBL4118103 for this set.

- Test system: Pseudomonas aeruginosa
- assay method text: Antibacterial activity against Pseudomonas aeruginosa ATCC 27853 after 18 hrs by agar dilution method
- Assay type: functional
- measurement parameters: ATCC 27853, 18 h
Bridge positions count the residues as written; N and C are the ends. Square brackets hold non-standard residues; d marks the D form. Peptide text beside a SMILES is read from it. * marks the point of attachment. Heptanoyl = CCCCCCC(=O)*; Dab = NCC[C@H](N)C(=O)O
parameter measured: MIC
Answer with the figure and its unit, nothing else.

compound	MIC
CCCCCCC(=O)N[C@@H](CCN)C(=O)N[C@H](C(=O)N[C@@H](CCN)C(=O)N[C@H]1CCNC(=O)[C@H]([C@@H](C)O)NC(=O)[C@H](CCN)NC(=O)[C@H](CCN)NC(=O)[C@H](CC(C)C)NC(=O)[C@@H](CC(C)C)NC(=O)[C@H](CCN)NC1=O)[C@@H](C)O (Heptanoyl-[Dab]T[Dab][Dab][Dab][dL]L[Dab][Dab]T; lactam 4-C)	1 µg/mL

Pending compound:
Supply MIC measured with Pseudomonas aeruginosa for `CC[C@H](C)CCCCC(=O)N[C@@H](CCN)C(=O)N[C@H](C(=O)N[C@H](CO)C(=O)N[C@H]1CCNC(=O)[C@H]([C@@H](C)O)NC(=O)[C@H](CCN)NC(=O)[C@H](CCN)NC(=O)[C@H]([C@@H](C)O)NC(=O)[C@@H](Cc2ccccc2)NC(=O)[C@H](CCN)NC1=O)[C@@H](C)O` .
4 µg/mL

* * *

- assay method text: Acute toxicity in iv dosed ICR mouse assessed as survival measured daily for 7 days
- Type: organism-based
- measurement parameters: in vivo
Bridge positions count the residues as written; N and C are the ends. Square brackets hold non-standard residues; d marks the D form. Peptide text beside a SMILES is read from it. * marks the point of attachment. X1 = CC[C@H](C)CCCCC(=O)*; Dab = NCC[C@H](N)C(=O)O
Measured LD50 at 168 h of individual entries
Give a bare numeral; the unit mg/kg is implied.

molecule	parameter measured	reported result
CC[C@H](C)[C@@H]1NC(=O)[C@@H](CC(C)C)NC(=O)[C@H](CCN)NC(=O)[C@@H](NC(=O)[C@H](CCN)NC(=O)[C@@H](NC(=O)[C@H](CCN)NC(=O)CCCCC(C)C)[C@@H](C)O)CCNC(=O)[C@H]([C@@H](C)O)NC(=O)[C@H](CCN)NC(=O)[C@H](CCN)NC1=O	LD50 at 168 h	12.9

Pending molecule:
Assign LD50 at 168 h to the following record: CC[C@H](C)CCCCC(=O)N[C@@H](CCN)C(=O)N[C@H](C(=O)N[C@@H](CCN)C(=O)N[C@H]1CCNC(=O)[C@H]([C@@H](C)O)NC(=O)[C@H](CCN)NC(=O)[C@H](CCN)NC(=O)[C@H]([C@@H](C)O)NC(=O)[C@@H](CC(C)C)NC(=O)[C@H](CCN)NC1=O)[C@@H](C)O (X1-[Dab]T[Dab][Dab][Dab][dL]T[Dab][Dab]T; lactam 4-C)
11.4

* * *

Measured LD50 at 168 h of individual entries
- assay method text: Acute toxicity in iv dosed ICR mouse assessed as survival measured daily for 7 days
- Format: organism-based
- measurement parameters: in vivo
Bridge positions count the residues as written; N and C are the ends. Square brackets hold non-standard residues; d marks the D form. Peptide text beside a SMILES is read from it. * marks the point of attachment. Heptanoyl(6-Me) = CC(C)CCCCC(=O)*; Dab = NCC[C@H](N)C(=O)O; Nva = CCC[C@H](N)C(=O)O
Give a bare numeral; the unit mg/kg is implied.

Example entries begin here.
compound	units of measure	LD50 at 168 h
CC(C)CCCCC(=O)N[C@@H](CCN)C(=O)N[C@H](C(=O)N[C@@H](CCN)C(=O)N[C@H]1CCNC(=O)[C@H]([C@@H](C)O)NC(=O)[C@H](CCN)NC(=O)[C@H](CCN)NC(=O)[C@H](CC(C)C)NC(=O)[C@@H](Cc2ccccc2)NC(=O)[C@H](CCN)NC1=O)[C@@H](C)O [POLYMYXIN B2] ({Heptanoyl(6-Me)}-[Dab]T[Dab][Dab][Dab][dF]L[Dab][Dab]T; lactam 4-C)	mg/kg	12.6
CC(C)CCCCC(=O)N[C@@H](CCN)C(=O)N[C@H](C(=O)N[C@H](CO)C(=O)N[C@H]1CCNC(=O)[C@H]([C@@H](C)O)NC(=O)[C@H](CCN)NC(=O)[C@H](CCN)NC(=O)[C@H]([C@@H](C)O)NC(=O)[C@@H](Cc2ccccc2)NC(=O)[C@H](CCN)NC1=O)[C@@H](C)O ({Heptanoyl(6-Me)}-[Dab]T[dS][Dab][Dab][dF]T[Dab][Dab]T; lactam 4-C)	mg/kg	17
CC(C)CCCCC(=O)N[C@@H](CCN)C(=O)N[C@H](C(=O)N[C@@H](CCN)C(=O)N[C@H]1CCNC(=O)[C@H]([C@@H](C)O)NC(=O)[C@H](CCN)NC(=O)[C@H](CCN)NC(=O)[C@H](CC(C)C)NC(=O)[C@@H](CC(C)C)NC(=O)[C@H](CCN)NC1=O)[C@@H](C)O [COLISTIN B] ({Heptanoyl(6-Me)}-[Dab]T[Dab][Dab][Dab][dL]L[Dab][Dab]T; lactam 4-C)	mg/kg	11.3
CC(C)CCCCC(=O)N[C@@H](CCN)C(=O)N[C@H](C(=O)N[C@H](CO)C(=O)N[C@H]1CCNC(=O)[C@H]([C@@H](C)O)NC(=O)[C@H](CCN)NC(=O)[C@H](CCN)NC(=O)[C@H]([C@@H](C)O)NC(=O)[C@@H](CC(C)C)NC(=O)[C@H](CCN)NC1=O)[C@@H](C)O ({Heptanoyl(6-Me)}-[Dab]T[dS][Dab][Dab][dL]T[Dab][Dab]T; lactam 4-C)	mg/kg	20.5
CC(C)CCCCC(=O)N[C@@H](CCN)C(=O)N[C@H](C(=O)N[C@@H](CCN)C(=O)N[C@H]1CCNC(=O)[C@H]([C@@H](C)O)NC(=O)[C@H](CCN)NC(=O)[C@H](CCN)NC(=O)[C@H](C(C)C)NC(=O)[C@@H](CC(C)C)NC(=O)[C@H](CCN)NC1=O)[C@@H](C)O ({Heptanoyl(6-Me)}-[Dab]T[Dab][Dab][Dab][dL]V[Dab][Dab]T; lactam 4-C)	mg/kg	13.2

Assign LD50 at 168 h to the following record: CCC[C@@H]1NC(=O)[C@@H](CC(C)C)NC(=O)[C@H](CCN)NC(=O)[C@@H](NC(=O)[C@H](CCN)NC(=O)[C@@H](NC(=O)[C@H](CCN)NC(=O)CCCCC(C)C)[C@@H](C)O)CCNC(=O)[C@H]([C@@H](C)O)NC(=O)[C@H](CCN)NC(=O)[C@H](CCN)NC1=O ({Heptanoyl(6-Me)}-[Dab]T[Dab][Dab][Dab][dL][Nva][Dab][Dab]T; lactam 4-C)
12.4

Assign LD50 at 168 h to the following record: `CC(C)CCCCC(=O)N[C@@H](CCN)C(=O)N[C@H](C(=O)N[C@@H](CCN)C(=O)N[C@H]1CCNC(=O)[C@H]([C@@H](C)O)NC(=O)[C@H](CCN)NC(=O)[C@H](CCN)NC(=O)[C@H]([C@@H](C)O)NC(=O)[C@@H](CC(C)C)NC(=O)[C@H](CCN)NC1=O)[C@@H](C)O`
13

* * *

Measured CC50 at 72 h of individual entries
- assay method text: Cytotoxicity against African green monkey Vero cells after 72 hrs by MTT assay
- Assay type: cell-based
- measurement parameters: chlorocebus sabaeus, Vero cells
Bridge positions count the residues as written; N and C are the ends. Square brackets hold non-standard residues; d marks the D form. Peptide text beside a SMILES is read from it. * marks the point of attachment. Heptanoyl(6-Me) = CC(C)CCCCC(=O)*; Nonanoyl = CCCCCCCCC(=O)*; X1 = CC[C@H](C)CCCCC(=O)*; Heptanoyl = CCCCCCC(=O)*; Octanoyl = CCCCCCCC(=O)*; Dab = NCC[C@H](N)C(=O)O; Nva = CCC[C@H](N)C(=O)O
Give a bare numeral; the unit µg/mL is implied.

Example entries begin here.
molecule	reported result
CCCCCCCCC(=O)N[C@@H](CCN)C(=O)N[C@H](C(=O)N[C@@H](CCN)C(=O)N[C@H]1CCNC(=O)[C@H]([C@@H](C)O)NC(=O)[C@H](CCN)NC(=O)[C@H](CCN)NC(=O)[C@H](CC(C)C)NC(=O)[C@@H](Cc2ccccc2)NC(=O)[C@H](CCN)NC1=O)[C@@H](C)O [POLYMYXIN B5] (Nonanoyl-[Dab]T[Dab][Dab][Dab][dF]L[Dab][Dab]T; lactam 4-C)	33
CCCCCCC(=O)N[C@@H](CCN)C(=O)N[C@H](C(=O)N[C@@H](CCN)C(=O)N[C@H]1CCNC(=O)[C@H]([C@@H](C)O)NC(=O)[C@H](CCN)NC(=O)[C@H](CCN)NC(=O)[C@H](CC(C)C)NC(=O)[C@@H](Cc2ccccc2)NC(=O)[C@H](CCN)NC1=O)[C@@H](C)O [POLYMYXIN B4] (Heptanoyl-[Dab]T[Dab][Dab][Dab][dF]L[Dab][Dab]T; lactam 4-C)	160
CC(C)CCCCC(=O)N[C@@H](CCN)C(=O)N[C@H](C(=O)N[C@@H](CCN)C(=O)N[C@H]1CCNC(=O)[C@H]([C@@H](C)O)NC(=O)[C@H](CCN)NC(=O)[C@H](CCN)NC(=O)[C@H](CC(C)C)NC(=O)[C@@H](Cc2ccccc2)NC(=O)[C@H](CCN)NC1=O)[C@@H](C)O [POLYMYXIN B2] ({Heptanoyl(6-Me)}-[Dab]T[Dab][Dab][Dab][dF]L[Dab][Dab]T; lactam 4-C)	159
CCCCCCCC(=O)N[C@@H](CCN)C(=O)N[C@H](C(=O)N[C@@H](CCN)C(=O)N[C@H]1CCNC(=O)[C@H]([C@@H](C)O)NC(=O)[C@H](CCN)NC(=O)[C@H](CCN)NC(=O)[C@H](CC(C)C)NC(=O)[C@@H](Cc2ccccc2)NC(=O)[C@H](CCN)NC1=O)[C@@H](C)O (Octanoyl-[Dab]T[Dab][Dab][Dab][dF]L[Dab][Dab]T; lactam 4-C)	86
CC[C@H](C)CCCCC(=O)N[C@@H](CCN)C(=O)N[C@H](C(=O)N[C@@H](CCN)C(=O)N[C@H]1CCNC(=O)[C@H]([C@@H](C)O)NC(=O)[C@H](CCN)NC(=O)[C@H](CCN)NC(=O)[C@H](CC(C)C)NC(=O)[C@@H](Cc2ccccc2)NC(=O)[C@H](CCN)NC1=O)[C@@H](C)O (X1-[Dab]T[Dab][Dab][Dab][dF]L[Dab][Dab]T; lactam 4-C)	71
CC(C)CCCCC(=O)N[C@@H](CCN)C(=O)N[C@H](C(=O)N[C@@H](CCN)C(=O)N[C@H]1CCNC(=O)[C@H]([C@@H](C)O)NC(=O)[C@H](CCN)NC(=O)[C@H](CCN)NC(=O)[C@H](CC(C)C)NC(=O)[C@@H](CC(C)C)NC(=O)[C@H](CCN)NC1=O)[C@@H](C)O [COLISTIN B] ({Heptanoyl(6-Me)}-[Dab]T[Dab][Dab][Dab][dL]L[Dab][Dab]T; lactam 4-C)	244

Assign CC50 at 72 h to the following record: CCCCCCCC(=O)N[C@@H](CCN)C(=O)N[C@H](C(=O)N[C@@H](CCN)C(=O)N[C@H]1CCNC(=O)[C@H]([C@@H](C)O)NC(=O)[C@H](CCN)NC(=O)[C@H](CCN)NC(=O)[C@H](CC(C)C)NC(=O)[C@@H](CC(C)C)NC(=O)[C@H](CCN)NC1=O)[C@@H](C)O (Octanoyl-[Dab]T[Dab][Dab][Dab][dL]L[Dab][Dab]T; lactam 4-C)
150

Assign CC50 at 72 h to the following record: CC[C@H](C)CCCCC(=O)N[C@@H](CCN)C(=O)N[C@H](C(=O)N[C@@H](CCN)C(=O)N[C@H]1CCNC(=O)[C@H]([C@@H](C)O)NC(=O)[C@H](CCN)NC(=O)[C@H](CCN)NC(=O)[C@H](C(C)C)NC(=O)[C@@H](CC(C)C)NC(=O)[C@H](CCN)NC1=O)[C@@H](C)O (X1-[Dab]T[Dab][Dab][Dab][dL]V[Dab][Dab]T; lactam 4-C)
131

Assign CC50 at 72 h to the following record: CCC[C@@H]1NC(=O)[C@@H](CC(C)C)NC(=O)[C@H](CCN)NC(=O)[C@@H](NC(=O)[C@H](CCN)NC(=O)[C@@H](NC(=O)[C@H](CCN)NC(=O)CCCC[C@@H](C)CC)[C@@H](C)O)CCNC(=O)[C@H]([C@@H](C)O)NC(=O)[C@H](CCN)NC(=O)[C@H](CCN)NC1=O (X1-[Dab]T[Dab][Dab][Dab][dL][Nva][Dab][Dab]T; lactam 4-C)
109

Assign CC50 at 72 h to the following record: CC(C)CCCCC(=O)N[C@@H](CCN)C(=O)N[C@H](C(=O)N[C@H](CO)C(=O)N[C@H]1CCNC(=O)[C@H]([C@@H](C)O)NC(=O)[C@H](CCN)NC(=O)[C@H](CCN)NC(=O)[C@H]([C@@H](C)O)NC(=O)[C@@H](CC(C)C)NC(=O)[C@H](CCN)NC1=O)[C@@H](C)O ({Heptanoyl(6-Me)}-[Dab]T[dS][Dab][Dab][dL]T[Dab][Dab]T; lactam 4-C)
318
